Entry source: paper PMC2904454

test: Plasma pharmacokinetics of sunitinib, SU12662 and total drug; format: in vivo, human; conditions: human, in vivo, AUC0–24, mean (SD)
measuredProperty: AUC(0-t) (ng·h/mL)
Answer format: numeric, ng·h/mL implied, no suffix.

Bench note: what AUC(0-t) did CCN(CC)CCNC(=O)c1c(C)[nH]c(/C=C2\C(=O)Nc3ccc(F)cc32)c1C [sunitinib, Sunitinib malate] show?
1170

====

experiment: Plasma pharmacokinetics of sunitinib, SU12662 and total drug; assay type: in vivo, human; details: human, plasma, oral, 37.5 mg
measuredProperty: Tmax (h)
Answer format: numeric, h implied, no suffix.

Bench note: what Tmax did CCN(CC)CCNC(=O)c1c(C)[nH]c(/C=C2\C(=O)Nc3ccc(F)cc32)c1C [sunitinib, Sunitinib malate] show?
8
